test system: Saccharomyces cerevisiae; experiment: protein stability index of tFT-peptide fusion (C-terminal peptide) (PSI (0-1 scale)); higher = more stable (slower turnover); settings: genetic background: wild type; temperature: 30 C
Recorded protein stability index for the following sequences
Output: the number by itself.

Endpoint output: protein stability index of `KTKRKKKRRRRE` . Value?
0.705

---
Which protein stability index is listed for `WLTCICSSVAPL` ?
0.698

# input sequence: `LFILSLGEYSLP` ; wanted: its protein stability index
0.673

Find the recorded protein stability index belonging to `KERKHKRTRQQT` and report it.
0.666

Can you look up the measured protein stability index of `GLYAVHEAGWRP` for me?
0.701

Would you kindly share the measured protein stability index for `RSFNVGLELLVW` ?
0.398

I would be grateful if you could share the reported protein stability index for `LFFSLLCSSFGS` .
0.708

Please look up its protein stability index: `PFLHPTRLARSN`
0.712

Could you tell me which protein stability index is on file for `MRVYLVLWADSC` ?
0.247

----------
protein stability index values by entry
test system: Saccharomyces cerevisiae; test: protein stability index of tFT-peptide fusion (C-terminal peptide) (PSI (0-1 scale)); higher = more stable (slower turnover); details: genetic background: wild type; temperature: 30 C
Give the figure by itself; no unit, no explanation.

Suppose we examine the sequence `LPDSYAVVPPTS` ; what protein stability index value has been reported?
0.642

Recorded protein stability index of `LAGRPSTTRAFR` , please.
0.59

For the sequence `TLAPVRAFVEFR` , what protein stability index is on record?
0.656

Recorded protein stability index for `FITRATRESRIG` , please?
0.694

// query protein stability index value for entry `LFSSFFSAAFAS`
0.677

Continuing:
For the sequence `LVSFLFAPLPLS` , what protein stability index is on record?
0.704

If you can, please state the reported protein stability index value of `VEDGQGEYRRWV` .
0.606

Please look up its protein stability index: `PTPPTAAPAAPR`
0.714

I have this sequence here, `PTYSCSIKIQAH` , and I need its recorded protein stability index.
0.427

# lookup: protein stability index of `CPMFVKFFFCLY`
0.405

Look up protein stability index: `NIGVKNVVLVEG`
0.537

Which protein stability index reading was recorded for the sequence `LYPTISCSARDG` ?
0.699

What does the record list as protein stability index for `LFTGPPPSPPPP` ?
0.699

Item under review: `KGRLVGWDRNRI` . Reported protein stability index?
0.75

----------
test system: Saccharomyces cerevisiae; assay: protein stability index of tFT-peptide fusion in deletion strain of DOA10 (PSI (0-1 scale)); higher = more stable (slower turnover)
assay_metric: protein stability index
The answer should be written as a number, with no unit following it.

Worked examples, 5 sequences total:
Which measured protein stability index value corresponds to `TLVSLPILLFFR` ?
0.613

Look up protein stability index: `RVTRLDMIYFRI`
0.658

Need protein stability index of `RVTRLDAIYFRIK` , thanks.
0.694

# input sequence: `GLYMMSVGCWFR` ; wanted: its protein stability index
0.604

Give the measured protein stability index of `RLVSLPILLFFR` .
0.614

Continuing:
GET /values?readout=protein stability index&item= `CLVSLFILLFFR`
0.433

Fill blank: measured protein stability index of the sequence `GLYMWSVGCWFR` is ____.
0.601

What value of protein stability index has been recorded for this entry: `RSLRILLPLYFR`
0.655

Query (sequence): `RVTRMDAIYFRI` ; field requested: protein stability index
0.683

Tell me the measured protein stability index of `QVTRLDAIYFRI` , please.
0.693
